- System: NCI-H23
- ASSAY_NOTES: NCI tumour cell line growth inhibition, 48 h
The source made the active and inactive calls. No stated cut-off is given here; in the data, active = GI50 up to about 1.1 µM and inactive = higher.
REPORTED_METRIC: GI50

For orientation, consider the following solved cases.
compound=N#Cc1sc2c(c1OC(=O)c1ccccc1)c(=O)n(-c1ccccc1)c(=S)n2-c1ccccc1 test_system=NCI-H23 reported_metric=GI50 recorded_measurement="21.2 µM (inactive)"
compound=N=C(N)C1=C(O)NC(=O)N(C2CCCCC2)C1 test_system=NCI-H23 reported_metric=GI50 recorded_measurement="> 100 µM (inactive)"

I have this compound here, CC1(C)OC(C[C@]2(C#N)C[C@H](CCl)OC(C)(C)O2)C[C@@H](C[C@]2(C#N)C[C@H](CCl)OC(C)(C)O2)O1 (stereo partly drawn) , and I need its recorded GI50.
> 100 µM (inactive)

* * *

- Tested on: M14
- ASSAY_NOTES: NCI tumour cell line growth inhibition, 48 h
The source made the active and inactive calls. No stated cut-off is given here; in the data, active = GI50 up to about 1.1 µM and inactive = higher.
API: response.call in active, inactive

compound="CC(=O)[C@@H]1[C@@H](OC(=O)CCC(C)COC2OC(CO)C(O)C(O)C2O)C[C@H]2[C@@H]3CC=C4C[C@@H](OC5OC(CO)C(OC6OC(C)C(O)C(O)C6O)C(O)C5OC5OC(C)C(O)C(O)C5O)CC[C@]4(C)[C@H]3CC[C@]12C (stereo partly drawn)" test_system=M14 answer_label=inactive
compound=O=C(CCCN1CCC2(CC1)CC(=O)N(N1CCCCCC1)C2=O)c1ccccc1 test_system=M14 answer_label=inactive
compound=CC(=O)Oc1ccc2c(c1)O/C(=C\c1ccc(O)cc1)C2=O test_system=M14 answer_label=inactive
compound="CCC1(OC(C)=O)C(=O)OCc2c1cc1n(c2=O)Cc2cc3ccccc3nc2-1 (stereo not drawn)" test_system=M14 answer_label=active

Test call for this compound, please: `CC(=O)NNc1nc(C)c(C(/C=C/c2ccc3c(c2)OCO3)=N/NC(=O)c2ccncc2)s1`
inactive

Test call for this compound, please: `Cc1c(C)c2c(c(N)c1C#N)C(=O)N(O)C2=O`
inactive

Test call for this compound, please: `Cc1cc(/N=C/c2ccc(F)cc2)n(-c2ccccc2)n1`
inactive

Test call for this compound, please: `O=c1[nH]c2ccccc2nc1CBr`
inactive

Test call for this compound, please: COc1ccccc1NC(=O)C(=O)C1C(=O)Nc2ccccc2[S+]1[O-] (stereo not drawn)
inactive

Test call for this compound, please: `CC(C)(C)n1c(=O)n2n(c1=O)C1c3cccc4cccc(c34)C2C2c3cccc4cccc(c34)C1n1c(=O)n(C(C)(C)C)c(=O)n12`
inactive

Test call for this compound, please: `COc1ccc(\N=C/C=C/C(=C/COC(C)=O)OC(C)=O)cc1`
inactive

* * *

- Tested on: SF-539
- ASSAY_NOTES: NCI tumour cell line growth inhibition, 48 h
Calls of active or inactive are those of the source. Cut-off read from the data, not from the text of the source: active = GI50 up to about 1.1 µM and inactive = higher.
// values below are reported GI50

compound=COc1nc(Cl)c(Cl)c(Cl)n1.COc1nc(Cl)nc(Cl)c1Cl reported_metric=GI50 recorded_measurement="9.35 µM (inactive)"
compound="N#CC(NNC(=O)c1ccccc1O)c1cccc(O)c1 (centres undefined)" reported_metric=GI50 recorded_measurement="2.93 µM (inactive)"
compound=O=[N+]([O-])/C(Cl)=C(/C(Cl)=C(Cl)Cl)N1CCCCC1 reported_metric=GI50 recorded_measurement="16.4 µM (inactive)"

I have this compound here, CC(C)C(C)C(C)(C)P(C)(C)=O (centres undefined) , and I need its recorded GI50.
> 100 µM (inactive)

* * *

- Test system: UACC-62
- ASSAY_NOTES: NCI tumour cell line growth inhibition, 48 h
Activity calls are given as the source filed them. No stated cut-off is given here; in the data, active = GI50 up to about 1.1 µM and inactive = higher.
REPORTED_METRIC: GI50

For orientation, consider the following solved cases.
molecule="C#CCNC(Cc1ccccc1)C(=O)O (stereo unspecified)" test_system=UACC-62 reported_metric=GI50 recorded_measurement="> 100 µM (inactive)"
molecule="COc1cc2c(cc1OC)C(C)N(C)c1c-2c(OC(C)=O)cc2cc(OC)c(OC)cc12 (stereo unspecified)" test_system=UACC-62 reported_metric=GI50 recorded_measurement="12.5 µM (inactive)"

I have this molecule here, `CN(C)C(=O)Oc1ccc(C(=S)Nc2ccccc2)cc1` , and I need its recorded GI50.
35.9 µM (inactive)

* * *

- Test system: CCRF-CEM
- ASSAY_NOTES: NCI tumour cell line growth inhibition, 48 h
Activity calls are given as the source filed them. No stated cut-off is given here; in the data, active = GI50 up to about 1.1 µM and inactive = higher.
API: response.call in 1 (yes) = active, 0 (no) = inactive

Before answering, review these 6 worked examples.
compound=COC(=O)CCSC(=O)Nc1ccccc1Cl answer_label="0 (no)"
compound=O=C(O)CSc1ccccc1C(=O)O answer_label="0 (no)"
compound=NC(=O)C/C=C/CC(N)=O answer_label="0 (no)"
compound="CC1(C)[C@@H]2C[C@H]1c1cnc(-c3ccccn3)cc1[C@H]2C(O)[C@@H]1c2cc(-c3ccccn3)ncc2[C@H]2C[C@@H]1C2(C)C (stereo partly drawn)" answer_label="1 (yes)"
compound=Cc1ccc(C)n2c1nc1cc3ccccc3cc12 answer_label="0 (no)"
compound=Cc1cc(-c2ccc[nH]2)on1 answer_label="0 (no)"

Test call for this compound, please: COC1OC(C)C2OC(C)(C)OC2C1OC(C)=O (stereo not drawn)
0 (no)

Test call for this compound, please: `CCOC(=O)/C(C#N)=C1/SC(C(=O)N/N=C/c2ccc(OC)cc2)=C(N)N1c1ccccc1`
0 (no)

Test call for this compound, please: `C#CCn1c(=O)c2cccnc2n(CC#C)c1=O`
0 (no)

Test call for this compound, please: `Cc1cc(=O)oc2c1cc(OCC(=O)OCCN1CCCCC1)c1occ(C)c12`
0 (no)

Test call for this compound, please: C[C@@H]1[C@H](C)N1CC(O)Cn1ccnc1[N+](=O)[O-] (stereo partly drawn)
0 (no)

Test call for this compound, please: `Cc1cc(C)nc(NS(=O)(=O)c2ccc(NC(=O)c3cccc4cc5ccccc5nc34)cc2)n1`
0 (no)

Test call for this compound, please: `CCCCc1ccc(-n2sc3ncc(C)cc3c2=O)cc1`
0 (no)

* * *

- Tested on: M14
- ASSAY_NOTES: NCI tumour cell line growth inhibition, 48 h
The source made the active and inactive calls. Rule as the data show it: active = GI50 up to about 1.1 µM and inactive = higher.
// values below are reported GI50

compound=CC1(C)O[C@@H]2[C@@H](COC(=O)c3ccccc3)C[C@@H](C#N)[C@@H]2O1 reported_metric=GI50 recorded_measurement="> 100 µM (inactive)"
compound="CCCCCCCCCCCCCCCCCCNc1ccn(C2OC(COP(=O)(O)O)C(O)C2O)c(=O)n1 (configuration not stated)" reported_metric=GI50 recorded_measurement="> 100 µM (inactive)"

I have this compound here, `O=C(CNc1ccc(Cl)cc1)Nn1c(-c2ccccc2)nc2ccccc2c1=O` , and I need its recorded GI50.
6.18 µM (inactive)

I have this compound here, `N/C(CCSCCSCC/C(N)=N\O)=N\O` , and I need its recorded GI50.
> 100 µM (inactive)

I have this compound here, `COCCOCC(=O)N(CCn1ccc(NC(c2ccccc2)(c2ccccc2)c2ccccc2)nc1=O)CCn1cnc2nc(N)[nH]c(=O)c21` , and I need its recorded GI50.
> 100 µM (inactive)

* * *

- System: UACC-62
- ASSAY_NOTES: NCI tumour cell line growth inhibition, 48 h
Activity calls are given as the source filed them. No stated cut-off is given here; in the data, active = GI50 up to about 1.1 µM and inactive = higher.
// values below are reported GI50

compound=Cc1ccc(C(=O)O)cc1NC(=O)c1cc(/C=C/c2ccccc2)[nH]c(=S)n1 recorded_measurement="> 100 µM (inactive)"
compound="COc1ccc2c(c1)CC[C@@H]1C2CC[C@]2(C)C(=O)N(CCN(C)C)C(=O)CC12 (stereo partly drawn)" recorded_measurement="> 100 µM (inactive)"

Now for another entry.
I have this compound here, `O=C(N/C(=C\c1cccc([N+](=O)[O-])c1)c1nc2c3c(ccc2[nH]1)C(=O)c1ccccc1C3=O)c1ccccc1` , and I need its recorded GI50.
55.2 µM (inactive)

* * *

// values below are reported GI50
- Test system: M14
- ASSAY_NOTES: NCI tumour cell line growth inhibition, 48 h
Activity calls are given as the source filed them. No stated cut-off is given here; in the data, active = GI50 up to about 1.1 µM and inactive = higher.

substance_smiles=CN(Cc1cc(Cl)c(Cl)cc1NC(=O)CN)[C@H]1CCCC[C@@H]1N1CCCC1 test_system=M14 reported_metric=GI50 recorded_measurement="17.1 µM (inactive)"
substance_smiles=COC(=O)CCSC(=O)Nc1ccccc1Cl test_system=M14 reported_metric=GI50 recorded_measurement="> 100 µM (inactive)"
substance_smiles=O=C1/C(=C/c2ccc(Cl)cc2)CCCc2ccccc21 test_system=M14 reported_metric=GI50 recorded_measurement="15.6 µM (inactive)"

I have this compound here, `COc1ccc(/C(=N/N=c2[nH]c3ccccc3[nH]2)C(=O)O)cc1` , and I need its recorded GI50.
> 100 µM (inactive)

I have this compound here, `CNC(=S)N/N=C(\C(=N/NC(=S)NC)c1ccccn1)c1ccccn1` , and I need its recorded GI50.
2.14 µM (inactive)

I have this compound here, `COc1c(OC)c(OC)c(-c2cc(=O)c3c(OC)c(OC)c(OC)c(OC)c3o2)c(OC)c1OC` , and I need its recorded GI50.
44 µM (inactive)

I have this compound here, `COc1ccc(/C=N/N=C(N)N)c(C(=O)O)c1OC` , and I need its recorded GI50.
> 100 µM (inactive)

Sourced from ChEMBL document CHEMBL1201862
